// provenance: patent US9834520B2

- system-tested: RORγt (Homo sapiens, UniProt P51449)
- experiment-notes: Cofactor recruitment test (Alpha Screen, biotinylated SRC-1 peptide)
- Assay type: biochemical
- measurement-setup: test compound 1 μM; read-out: signal value inhibitory rate (%)
This listing pairs compounds with measured inhibition at 1 µM.
Quick note: give the figure in %, leave out the unit.

[[record]]
compound = "C#CCn1c(=O)c2cc(NC(=O)CC(C)CC(=O)Nc3ccc(C#N)c(Cl)c3)ccc2n(CC)c1=O (centres unmarked) [Example 28]"
recorded_endpoint = "inhibition at 1 µM"
observed_result = 105

[[record]]
compound = "CCn1c(=O)c2cc(NC(=O)CC(C)CC(=O)Nc3ccc(C#N)c(Cl)c3)cc(F)c2n(CC)c1=O (centres unmarked) [Example 129]"
recorded_endpoint = "inhibition at 1 µM"
observed_result = 100

[[record]]
compound = "CC(CC(=O)Nc1ccc(C#N)c(Cl)c1)CC(=O)Nc1ccc2c(c1)c(=O)n(CC1CC1)c(=O)n2C(C)C (centres unmarked) [Example 144]"
recorded_endpoint = "inhibition at 1 µM"
observed_result = 102


The compound identified as CCn1c(=O)n(C[Si](C)(C)C)c(=O)c2cc(NC(=O)CC(C)CC(=O)Nc3ccc(C#N)c(Cl)c3)ccc21 (centres unmarked) [Example 32] registered its inhibition at 1 µM at 103

Notebook: CC(CC(=O)Nc1ccc(C#N)c(Cl)c1)CC(=O)Nc1cc2c(=O)n(CC3CC3)c(=O)n(CC3CC3)c2cn1 (centres unmarked) [Example 113] , inhibition at 1 µM read as 102

----------
- system-tested: RORγt (Homo sapiens, UniProt P51449)
- experiment-notes: Cofactor recruitment test (Alpha Screen, biotinylated SRC-1 peptide)
- Format: biochemical
- measurement-setup: test compound 1 μM; read-out: signal value inhibitory rate (%)
- Description: Cofactor Recruitment Test Cofactor recruitment test was performed by Alpha Screen (Histidine Detection Kit, PerkinElmer) method. First, a test compound diluted with an assay buffer (50 mM Tris-HCl (pH 7.5), 50 mM KCl, 1 mM DTT, 0.1% BSA) was added to a 384 well plate by 5 μL each. […] The mixture was stood in a dark place for 1 hr, and the signal value was measured by Envision (PerkinElmer).
recorded-endpoint: inhibition at 1 µM (%)
Field format: number, assumed %, no unit text.

These solved cases illustrate the format of a correct answer.
[[record]]
compound = "CCN1C(=O)C(c2ccccc2)Oc2cc(NC(=O)CC(C)CC(=O)Nc3ccc(C#N)c(Cl)c3)ccc21 (centres unmarked) [Example 12]"
system_tested = "RORγt (Homo sapiens, UniProt P51449)"
uom = "%"
observed_result = 104

[[record]]
compound = "CC(O)(CC(=O)Nc1ccc(C#N)c(Cl)c1)CC(=O)Nc1ccc2c(c1)c(=O)n(CC1CC1)c(=O)n2CC1CC1 (centres unmarked) [Example 102]"
system_tested = "RORγt (Homo sapiens, UniProt P51449)"
uom = "%"
observed_result = 104

[[record]]
compound = "CCn1c(=O)n(CC2CC2)c(=O)c2cc(NC(=O)CC[C@@H](O)C(=O)Nc3ccc(C#N)c(Cl)c3)ccc21 [Example 138]"
system_tested = "RORγt (Homo sapiens, UniProt P51449)"
uom = "%"
observed_result = 100


Memo: CC(CNC(=O)c1cc2c(=O)n(CC3CC3)c(=O)n(CC3CC3)c2cn1)CC(=O)Nc1ccc(C#N)c(Cl)c1 (centres unmarked) [Example 112] , reported inhibition at 1 µM: 100

Looking up CCn1c(=O)c2cc(NC(=O)CC(C)CC(=O)Nc3ccc(C#N)c(Cl)c3)ncc2n(CC)c1=O (centres unmarked) [Example 124] , I found its inhibition at 1 µM recorded as 101

----------
- system-tested: RORγt (Homo sapiens)
- experiment-notes: RORγt binding test (TR-FRET, fluorescent-labeled cholesterol)
- measurement-setup: binding inhibitory rate of fluorescent-labeled cholesterol to RORγt at test compound 1 μM
Entries and their measured inhibition at 1 µM follow.
Respond with the bare value in %.

[[record]]
compound = "C#CCn1c(=O)c2cc(NC(=O)CC(C)CC(=O)Nc3ccc(C#N)c(Cl)c3)ccc2n(CC)c1=O (centres unmarked)"
uom = "%"
observed_result = 99.3

[[record]]
compound = "CCn1c(=O)c2cc(C(=O)NCC(C)CC(=O)Nc3ccc(C#N)c(Cl)c3)ccc2n(CC)c1=O (centres unmarked)"
uom = "%"
observed_result = 96.7

[[record]]
compound = "CCn1c(=O)c2cc(NC(=O)CC(C)CNC(=O)c3ccc(C#N)c(Cl)c3)ccc2n(CC)c1=O (centres unmarked)"
uom = "%"
observed_result = 97.3

[[record]]
compound = "CCn1c(=O)c2cc(NC(=O)CC(C)CC(=O)Nc3ccc(C#N)c(Cl)c3)c(F)cc2n(CC)c1=O (centres unmarked)"
uom = "%"
observed_result = 101

[[record]]
compound = "CCn1c(=O)n(CC2CC2)c(=O)c2cc(NC(=O)[C@@H](O)CCC(=O)Nc3ccc(C#N)c(Cl)c3)ccc21"
uom = "%"
observed_result = 102

[[record]]
compound = "CCn1c(=O)n(CC2CC2)c(=O)c2cc(NC(=O)CC[C@@H](O)C(=O)Nc3ccc(C#N)c(Cl)c3)ccc21"
uom = "%"
observed_result = 104

[[record]]
compound = "CCn1c(=O)n(CC2CC2)c(=O)c2cc(NC(=O)CC[C@H](O)C(=O)Nc3ccc(C#N)c(Cl)c3)ccc21"
uom = "%"
observed_result = 102

[[record]]
compound = "CCn1c(=O)c2cc(NC(=O)CC(C)CC(=O)Nc3ccc(C#N)c(Cl)c3)ccc2n(C[Si](C)(C)C)c1=O (centres unmarked)"
uom = "%"
observed_result = 103


Known value: RORγt (Homo sapiens) inhibition at 1 µM of the compound CCn1c(=O)n(COC)c(=O)c2cc(NC(=O)CC(C)CC(=O)Nc3ccc(C#N)c(Cl)c3)ccc21 (centres unmarked) equals 99.6

The observed inhibition at 1 µM for CCn1c(=O)c2cc(C(=O)NCC(CC(=O)Nc3ccc(C#N)c(Cl)c3)C(C)C)ccc2n(CC)c1=O (centres unmarked) when tested with RORγt (Homo sapiens) stands at 101

The reported RORγt (Homo sapiens) inhibition at 1 µM of CCn1c(=O)c2cc(NC(=O)CC(C)CC(=O)Nc3ccc(C#N)c(Cl)c3)cc(F)c2n(CC)c1=O (centres unmarked) is 100

The compound CC(CNC(=O)c1cc2c(=O)n(CC3CC3)c(=O)n(CC3CC3)c2cn1)CC(=O)Nc1ccc(C#N)c(Cl)c1 (centres unmarked) , tested on RORγt (Homo sapiens), showed inhibition at 1 µM of 96.6

inhibition at 1 µM for RORγt (Homo sapiens) with input CCn1c(=O)n(CCCOC)c(=O)c2cc(NC(=O)CC(C)CC(=O)Nc3ccc(C#N)c(Cl)c3)ccc21 (centres unmarked) equals 103

The observed inhibition at 1 µM for CC(CC(=O)Nc1ccc(C#N)c(Cl)c1)CC(=O)Nc1cc2c(=O)n(CC3CC3)c(=O)n(CC3CC3)c2cn1 (centres unmarked) when tested with RORγt (Homo sapiens) stands at 103

----------
// reported inhibition at 1 µM per item
- system-tested: RORγt (Homo sapiens)
- Sequence (P51449 1-497 isoform P51449-2): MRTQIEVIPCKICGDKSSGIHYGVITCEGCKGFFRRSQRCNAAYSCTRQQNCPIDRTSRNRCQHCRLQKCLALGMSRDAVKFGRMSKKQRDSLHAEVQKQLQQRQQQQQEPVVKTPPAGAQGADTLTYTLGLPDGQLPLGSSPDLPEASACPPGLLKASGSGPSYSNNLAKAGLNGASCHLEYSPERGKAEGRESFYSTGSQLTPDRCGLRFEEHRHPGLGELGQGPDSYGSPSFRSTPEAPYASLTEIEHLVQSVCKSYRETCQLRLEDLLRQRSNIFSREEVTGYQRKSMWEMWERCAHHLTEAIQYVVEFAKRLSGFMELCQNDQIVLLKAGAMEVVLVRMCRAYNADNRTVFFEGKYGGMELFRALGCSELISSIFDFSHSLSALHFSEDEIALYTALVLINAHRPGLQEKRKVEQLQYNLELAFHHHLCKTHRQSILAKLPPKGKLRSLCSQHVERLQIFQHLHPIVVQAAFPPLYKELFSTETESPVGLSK
- experiment-notes: Cofactor recruitment test (Alpha Screen, biotinylated SRC-1 peptide)
- Type: biochemical
- measurement-setup: test compound 1 μM; read-out: signal value inhibitory rate (%)

[[record]]
molecule = "CCn1c(=O)n(C2CC2)c(=O)c2cc(NC(=O)CC(C)CC(=O)Nc3ccc(C#N)c(Cl)c3)ccc21 (stereo not drawn)"
observed_result = "103%"

[[record]]
molecule = "CCn1c(=O)n(COC)c(=O)c2cc(NC(=O)CC(C)CC(=O)Nc3ccc(C#N)c(Cl)c3)ccc21 (stereo not drawn)"
observed_result = "104%"

[[record]]
molecule = "CCn1c(=O)n(CC2CC2)c(=O)c2cc(NC(=O)[C@@H](O)CCC(=O)Nc3ccc(C#N)c(Cl)c3)ccc21"
observed_result = "102%"

[[record]]
molecule = "CCn1c(=O)c2cc(NC(=O)CC(C)CC(=O)Nc3ccc(C#N)c(Cl)c3)ccc2n(C[Si](C)(C)C)c1=O (stereo not drawn)"
observed_result = "100%"

[[record]]
molecule = "CCn1c(=O)c2cc(NC(=O)CC(C)CC(=O)Nc3ccc(C#N)c(Cl)c3)c(F)cc2n(CC)c1=O (stereo not drawn)"
observed_result = "102%"

[[record]]
molecule = "CCN1Cc2cc(NC(=O)CC(C)CC(=O)Nc3ccc(C#N)c(Cl)c3)ccc2N(CC)C1=O (stereo not drawn)"
observed_result = "104%"

[[record]]
molecule = "CCn1c(=O)n(CSC)c(=O)c2cc(NC(=O)CC(C)CC(=O)Nc3ccc(C#N)c(Cl)c3)ccc21 (stereo not drawn)"
observed_result = "102%"

[[record]]
molecule = "CCn1c(=O)n(CC2CC2)c(=O)c2cc(NC(=O)CC[C@H](O)C(=O)Nc3ccc(C#N)c(Cl)c3)ccc21"
observed_result = "102%"


Continue with the next molecule.
inhibition at 1 µM reported for this molecule CCn1c(=O)c2cc(C(=O)NCC(CC(=O)Nc3ccc(C#N)c(Cl)c3)C(C)C)ccc2n(CC)c1=O (stereo not drawn) : 103%
